target: Serine-protein kinase ATM (Homo sapiens)
Sequence (Q13315 whole entry): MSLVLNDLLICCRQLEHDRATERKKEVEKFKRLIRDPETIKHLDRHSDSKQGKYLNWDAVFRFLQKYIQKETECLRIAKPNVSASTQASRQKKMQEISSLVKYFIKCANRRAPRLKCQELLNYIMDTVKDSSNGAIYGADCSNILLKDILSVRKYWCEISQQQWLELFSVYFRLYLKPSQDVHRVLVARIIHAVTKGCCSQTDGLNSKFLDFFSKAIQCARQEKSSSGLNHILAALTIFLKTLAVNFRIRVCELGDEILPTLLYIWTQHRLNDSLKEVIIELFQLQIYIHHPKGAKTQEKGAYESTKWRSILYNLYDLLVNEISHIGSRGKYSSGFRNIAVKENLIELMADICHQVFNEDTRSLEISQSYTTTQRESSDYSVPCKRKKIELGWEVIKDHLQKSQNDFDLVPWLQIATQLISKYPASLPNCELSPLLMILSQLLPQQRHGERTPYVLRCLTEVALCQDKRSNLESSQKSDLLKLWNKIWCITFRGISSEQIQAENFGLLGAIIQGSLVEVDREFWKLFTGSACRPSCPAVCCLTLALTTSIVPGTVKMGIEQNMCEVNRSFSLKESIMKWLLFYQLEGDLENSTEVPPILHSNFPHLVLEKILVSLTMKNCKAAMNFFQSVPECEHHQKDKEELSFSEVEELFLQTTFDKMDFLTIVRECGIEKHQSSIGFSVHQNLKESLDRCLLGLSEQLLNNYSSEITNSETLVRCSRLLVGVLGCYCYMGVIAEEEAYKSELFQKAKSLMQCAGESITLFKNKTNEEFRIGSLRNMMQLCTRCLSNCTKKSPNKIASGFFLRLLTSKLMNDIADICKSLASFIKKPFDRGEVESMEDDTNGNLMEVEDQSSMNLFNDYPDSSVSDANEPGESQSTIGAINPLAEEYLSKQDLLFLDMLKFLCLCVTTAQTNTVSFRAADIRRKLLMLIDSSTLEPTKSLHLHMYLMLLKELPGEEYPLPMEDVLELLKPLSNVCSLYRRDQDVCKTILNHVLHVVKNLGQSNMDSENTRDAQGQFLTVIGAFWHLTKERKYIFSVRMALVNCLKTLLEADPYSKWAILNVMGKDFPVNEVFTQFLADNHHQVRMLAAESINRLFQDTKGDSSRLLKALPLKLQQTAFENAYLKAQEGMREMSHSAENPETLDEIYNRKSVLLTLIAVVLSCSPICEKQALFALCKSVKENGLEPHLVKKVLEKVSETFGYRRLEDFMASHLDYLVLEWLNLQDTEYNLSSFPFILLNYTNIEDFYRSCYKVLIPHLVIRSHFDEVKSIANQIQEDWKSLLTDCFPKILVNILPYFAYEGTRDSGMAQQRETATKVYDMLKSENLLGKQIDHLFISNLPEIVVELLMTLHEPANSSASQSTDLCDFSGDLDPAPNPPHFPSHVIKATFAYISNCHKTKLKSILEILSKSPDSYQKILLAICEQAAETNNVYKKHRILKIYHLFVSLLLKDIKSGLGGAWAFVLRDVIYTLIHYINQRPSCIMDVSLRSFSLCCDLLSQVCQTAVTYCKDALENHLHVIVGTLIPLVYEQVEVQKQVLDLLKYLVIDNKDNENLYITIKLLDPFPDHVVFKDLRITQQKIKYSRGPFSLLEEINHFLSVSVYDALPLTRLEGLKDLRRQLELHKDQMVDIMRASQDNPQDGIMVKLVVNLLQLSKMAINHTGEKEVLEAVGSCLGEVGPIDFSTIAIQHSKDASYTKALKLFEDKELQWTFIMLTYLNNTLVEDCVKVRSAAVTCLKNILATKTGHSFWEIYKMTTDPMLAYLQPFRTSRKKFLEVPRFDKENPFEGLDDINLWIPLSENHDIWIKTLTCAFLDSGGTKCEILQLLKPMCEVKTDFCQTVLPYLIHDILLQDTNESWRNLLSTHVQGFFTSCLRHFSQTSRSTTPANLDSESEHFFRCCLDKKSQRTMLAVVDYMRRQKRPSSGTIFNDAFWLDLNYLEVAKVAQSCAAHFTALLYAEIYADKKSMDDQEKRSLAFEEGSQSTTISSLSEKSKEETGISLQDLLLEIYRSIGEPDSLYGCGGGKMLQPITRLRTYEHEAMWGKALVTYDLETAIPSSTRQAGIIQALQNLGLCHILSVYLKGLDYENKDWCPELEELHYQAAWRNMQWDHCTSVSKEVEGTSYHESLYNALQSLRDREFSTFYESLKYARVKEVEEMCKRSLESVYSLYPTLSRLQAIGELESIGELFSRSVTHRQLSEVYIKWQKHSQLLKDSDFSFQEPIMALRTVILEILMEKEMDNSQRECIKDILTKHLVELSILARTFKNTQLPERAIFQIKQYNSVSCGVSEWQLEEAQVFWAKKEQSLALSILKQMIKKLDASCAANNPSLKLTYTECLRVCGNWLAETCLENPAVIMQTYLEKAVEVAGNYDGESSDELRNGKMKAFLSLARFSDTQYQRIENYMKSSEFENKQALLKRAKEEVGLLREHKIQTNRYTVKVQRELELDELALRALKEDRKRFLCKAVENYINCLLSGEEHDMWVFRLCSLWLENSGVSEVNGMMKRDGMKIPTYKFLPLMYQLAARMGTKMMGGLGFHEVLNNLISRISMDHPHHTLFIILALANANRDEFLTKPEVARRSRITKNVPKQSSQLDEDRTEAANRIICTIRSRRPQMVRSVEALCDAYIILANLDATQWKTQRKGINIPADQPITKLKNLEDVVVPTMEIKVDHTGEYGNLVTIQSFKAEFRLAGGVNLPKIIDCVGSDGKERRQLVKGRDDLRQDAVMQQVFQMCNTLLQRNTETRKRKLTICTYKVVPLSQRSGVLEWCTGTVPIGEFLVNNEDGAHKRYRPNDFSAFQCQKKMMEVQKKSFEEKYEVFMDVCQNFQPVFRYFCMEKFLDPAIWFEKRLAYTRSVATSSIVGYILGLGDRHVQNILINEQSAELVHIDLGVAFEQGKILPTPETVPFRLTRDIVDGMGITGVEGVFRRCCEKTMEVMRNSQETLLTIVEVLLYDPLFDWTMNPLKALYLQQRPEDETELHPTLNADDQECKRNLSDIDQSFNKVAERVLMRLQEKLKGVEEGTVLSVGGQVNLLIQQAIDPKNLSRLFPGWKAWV
Metric name: Ki (nM)
Give bare numbers, in nM.

What value of Ki has been reported for the following molecule? "C[C@H]1CCN(c2nc(N3CCOCC3)cc(=O)[nH]2)[C@@H]1Cc1ccccc1" 0.4

----------
biological target: Phosphatidylinositol 3-kinase catalytic subunit type 3 (Homo sapiens); assay: Binding affinity to Vps34 (unknown origin) assessed as inhibition constant
Sequence (Q8NEB9 whole entry): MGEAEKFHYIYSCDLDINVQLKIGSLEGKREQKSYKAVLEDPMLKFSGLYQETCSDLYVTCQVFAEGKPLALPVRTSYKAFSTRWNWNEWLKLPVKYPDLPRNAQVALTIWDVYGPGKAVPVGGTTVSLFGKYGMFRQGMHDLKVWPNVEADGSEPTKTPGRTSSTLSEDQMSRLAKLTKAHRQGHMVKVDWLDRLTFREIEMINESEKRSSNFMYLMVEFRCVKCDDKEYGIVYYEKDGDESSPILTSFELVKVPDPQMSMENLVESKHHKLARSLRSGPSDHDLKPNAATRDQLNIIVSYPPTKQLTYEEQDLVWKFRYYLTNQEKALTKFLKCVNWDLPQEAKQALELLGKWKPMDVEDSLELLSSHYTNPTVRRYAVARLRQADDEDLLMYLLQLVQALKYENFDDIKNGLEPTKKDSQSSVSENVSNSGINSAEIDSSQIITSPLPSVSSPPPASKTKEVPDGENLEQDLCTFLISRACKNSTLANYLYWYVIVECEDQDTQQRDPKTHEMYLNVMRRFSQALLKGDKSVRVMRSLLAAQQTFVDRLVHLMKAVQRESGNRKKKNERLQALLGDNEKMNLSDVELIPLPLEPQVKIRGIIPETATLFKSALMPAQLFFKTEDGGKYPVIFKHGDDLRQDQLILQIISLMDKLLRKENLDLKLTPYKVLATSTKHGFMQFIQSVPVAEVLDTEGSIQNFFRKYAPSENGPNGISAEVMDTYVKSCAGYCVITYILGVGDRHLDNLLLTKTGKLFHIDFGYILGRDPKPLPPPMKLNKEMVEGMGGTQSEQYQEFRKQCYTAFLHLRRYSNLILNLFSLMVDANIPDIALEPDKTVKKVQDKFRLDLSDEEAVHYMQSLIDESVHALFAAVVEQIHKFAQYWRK
Metric name: Ki (nM)
Give bare numbers, in nM.

INSERT INTO measurements (molecule, metric_name, reading_unit, observed_value) VALUES
  ('C[C@H]1CCN(c2nc(N3CCOCC3)cc(=O)[nH]2)[C@@H]1Cc1ccccc1', 'Ki', 'nM', 6),
  ('O=c1cc(N2CCOCC2)cc(N2CC3CC3[C@H]2Cc2ccccc2)[nH]1 (some centres undefined)', 'Ki', 'nM', 9);

// each molecule listed below needs its Ki
1. O=c1cc(N2CCOCC2)cc(N2CCCCC[C@H]2Cc2ccccc2)[nH]1
2. O=c1cc(N2CCOCC2)cc(N2C[C@@H]3C[C@@H]3[C@H]2Cc2ccccc2)[nH]1

50
90

----------
target: Serine-protein kinase ATM (Homo sapiens)
Metric name: pIC50
One number for each entry, as −log10 of the molar value.

What value of pIC50 has been reported for the following compound? C=C1C(=O)OCC1C(=O)N1Cc2cc3ccccc3nc2C1 (stereo unspecified) 6.22
